The measurements presented in this section are drawn from patent US20220340665A1.

EXPERIMENTAL_SYSTEM: human PAI-1 (Homo sapiens, UniProt P05121)
Sequence (P05121 24-402): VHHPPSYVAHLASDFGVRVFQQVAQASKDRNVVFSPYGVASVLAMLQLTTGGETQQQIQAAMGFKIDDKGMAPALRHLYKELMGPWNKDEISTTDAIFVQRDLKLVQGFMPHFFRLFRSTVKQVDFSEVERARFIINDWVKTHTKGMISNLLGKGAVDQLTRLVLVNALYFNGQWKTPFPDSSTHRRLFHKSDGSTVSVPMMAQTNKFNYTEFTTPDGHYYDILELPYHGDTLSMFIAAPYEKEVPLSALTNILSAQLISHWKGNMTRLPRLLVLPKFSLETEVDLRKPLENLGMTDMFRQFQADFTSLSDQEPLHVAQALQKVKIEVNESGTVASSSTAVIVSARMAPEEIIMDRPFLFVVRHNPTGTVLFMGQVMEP
METHOD: PAI-1 inhibitory activity, t-PA with Spectrozyme t-PA chromogenic substrate (Reference Experimental Example 2)
Type: biochemical
Parameters: purchased Molecular Innovations, Inc. (USA)
SETUP_CONDITIONS: Tables 5 to 7, first value column; head prints no concentration
Measured PAI-1 activity % of individual entries
Express your answer in %, writing the number without its unit.

Worked cases, PAI-1 activity % given:
SMILES_ENTRY: O=C(Nc1ccc(Cl)cc1C(=O)[O-])c1ccc(OCc2ccc3ccccc3n2)cc1.[Na+]
RESULT_UNITS: %
MEASURED_RESULT: 0.7
//
SMILES_ENTRY: O=C(Nc1ccc(Cl)cc1C(=O)O)c1cccc(C2=CCCCC2)c1
RESULT_UNITS: %
MEASURED_RESULT: 1.6
//
SMILES_ENTRY: Cc1ccc(C23CC4CC(CC(C(=O)Nc5ccc(Cl)cc5C(=O)O)(C4)C2)C3)cc1
RESULT_UNITS: %
MEASURED_RESULT: 1.4

Would you kindly look at the next entry?
// query // lookup PAI-1 activity % | system=human PAI-1 (Homo sapiens, UniProt P05121) | key= O=C([O-])c1cc(Cl)ccc1NC(=O)c1cc(-c2ccccc2)nc2ccccc12.[Na+]
// result 6.7
